Biological target: RORγ (UniProt P51449)
Sequence (P51449 1-518): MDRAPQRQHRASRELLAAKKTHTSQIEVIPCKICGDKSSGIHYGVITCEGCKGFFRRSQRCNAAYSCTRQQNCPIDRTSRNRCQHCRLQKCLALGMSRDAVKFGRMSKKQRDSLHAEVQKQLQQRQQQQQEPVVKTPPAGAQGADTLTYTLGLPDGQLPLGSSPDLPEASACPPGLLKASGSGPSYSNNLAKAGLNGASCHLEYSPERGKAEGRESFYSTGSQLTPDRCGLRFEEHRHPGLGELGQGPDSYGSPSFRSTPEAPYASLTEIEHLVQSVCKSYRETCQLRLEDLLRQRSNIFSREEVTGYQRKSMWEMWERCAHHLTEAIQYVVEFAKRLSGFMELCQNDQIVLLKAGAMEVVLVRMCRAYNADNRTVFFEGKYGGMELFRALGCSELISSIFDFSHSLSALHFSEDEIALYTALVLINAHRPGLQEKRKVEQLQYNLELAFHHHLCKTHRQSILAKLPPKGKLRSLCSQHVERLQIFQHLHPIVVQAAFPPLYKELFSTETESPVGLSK
Assay: RORγ Gal4 Reporter Gene Assay in 293T cells (firefly and renilla luciferase)
Format: cell-based, human
Conditions: third value of the cell; Gal4 reporter gene assay in 293T cells, renilla normalised luciferase
measurement_type: pIC50 (REN)

- molecule: "Cc1c(C(=O)NCC2(C(N)=O)CCOCC2)cc(-c2ccc(S(=O)(=O)NC(C)(C)C)c(C(F)(F)F)c2)n1CC1CCCCC1"
  assayed_system: "RORγ (UniProt P51449)"
  numeric_readout: 7.8
- molecule: "Cc1c(C(=O)NCC(C)(C)CC(=O)O)cc(-c2cc(C(C)(C)C)c3c(c2)C2(CCO3)CC2)n1CC1CCCCC1"
  assayed_system: "RORγ (UniProt P51449)"
  numeric_readout: 7.5
- molecule: "Cc1c(C(=O)NC2CCOCC2)cc(-c2cc3c(c(C(C)(C)C)c2)OCCC3F)n1CC1CCCCC1 (stereo not drawn)"
  assayed_system: "RORγ (UniProt P51449)"
  numeric_readout: 6.5

Measured values drawn from patent US9815851B2 for this set.
